Molecular target: T1, TNFR1 (Homo sapiens, UniProt P19438)
T1 chain: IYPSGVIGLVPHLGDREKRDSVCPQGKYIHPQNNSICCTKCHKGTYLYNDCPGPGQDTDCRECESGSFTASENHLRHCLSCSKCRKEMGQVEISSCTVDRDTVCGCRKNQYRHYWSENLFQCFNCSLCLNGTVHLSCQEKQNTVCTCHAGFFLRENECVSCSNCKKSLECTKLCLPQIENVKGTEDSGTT
Assay: yeast display SC50
property measured: apparent Kd (screen) (pM)

• E101M (designed binder) MTLQELLREEALRRAEAEAFRYALELLAEKFPEQKEYLLDLAEEIESQIRSLSGVDVEDVRKFLDKEWAWVKELLAEHPAELAEVEAARAARLAELRAEVMAKVAA = 653
• R14Q (designed binder) MTLQELLREEALRQAEAEAFRYALELLAEKFPEQKEYLLDLAEEIESQIRSLSGVDVEDVRKFLDKEWAWVKELLAEHPAELAEVEAARAARLAELRAEVEAKVAA = 593
• Y22D (designed binder) MTLQELLREEALRRAEAEAFRDALELLAEKFPEQKEYLLDLAEEIESQIRSLSGVDVEDVRKFLDKEWAWVKELLAEHPAELAEVEAARAARLAELRAEVEAKVAA = 446
• E44D (designed binder) MTLQELLREEALRRAEAEAFRYALELLAEKFPEQKEYLLDLAEDIESQIRSLSGVDVEDVRKFLDKEWAWVKELLAEHPAELAEVEAARAARLAELRAEVEAKVAA = 7780
